- studyTarget: Human STING (Homo sapiens, UniProt Q86WV6, G230A/H232R/R293Q/R71H)
- Construct: host or cells: THP1-Dual cells (human monocytic reporter line)
- Sequence (Q86WV6 whole entry R71H/G230A/H232R/R293Q): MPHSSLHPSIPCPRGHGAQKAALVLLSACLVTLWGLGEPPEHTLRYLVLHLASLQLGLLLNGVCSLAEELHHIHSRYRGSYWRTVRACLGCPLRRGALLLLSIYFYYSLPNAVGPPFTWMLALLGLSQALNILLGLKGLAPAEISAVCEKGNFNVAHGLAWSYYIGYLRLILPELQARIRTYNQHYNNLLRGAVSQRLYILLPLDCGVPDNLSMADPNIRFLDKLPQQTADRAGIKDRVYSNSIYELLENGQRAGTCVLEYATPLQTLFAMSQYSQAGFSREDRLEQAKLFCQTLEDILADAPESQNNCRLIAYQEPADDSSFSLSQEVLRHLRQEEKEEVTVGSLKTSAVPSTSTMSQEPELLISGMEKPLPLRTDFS
- procedureSummary: EC50 in THP1-Dual cells, NF-kB reporter (QUANTI-Blue)
- Type: cell-based
- experimentalContext: THP1 cell line, 24 h, OD620, read-out: ECs50 NF-kB
outcomeMeasure: EC50 (µM)

1: [BH3-][P+]1(O)OCC2OC(n3cnc4c(N)ncnc43)C(OP(=O)(O)OCC3OC(n4cnc5c(N)ncnc54)C(F)C3O1)C2F (single isomer, unassigned) [Compound K2]
2: [BH3-][P+]1(O)OCC2OC(n3cnc4c(N)ncnc43)C(OP(=O)(O)OCC3OC(n4cnc5c(N)ncnc54)C(F)C3O1)C2F (single isomer, unassigned) [Compound K1]
Prompt: Hey, which is lower on measured EC50, 1 or 2 ? Pick one; state its label.
Response: 2
(2: 7.47 µM, 1: 72.6 µM)
